# credit: BindingDB's records for doi:10.1016/j.bmcl.2003.11.081

target: Phenylalanine--tRNA ligase (Enterococcus faecalis); test: Inhibitory activity against phenylalanyl-tRNA synthetase from Enterococcus faecalis
pIC50: −log10 of the molar value.
Measured pIC50, listed per entry.

Cc1ccc(C2OC3(C(=O)c4ccccc4C3=O)c3c2c(O)n(-c2ccc4c(c2)OCO4)c3O)cc1 (stereo not drawn); < 4.00
COC(=O)C1NC(c2ccccc2)c2c1c(O)n(-c1ccc(Cl)c(Cl)c1)c2O (stereo not drawn); < 4.00

Quote Phenylalanine--tRNA ligase (Enterococcus faecalis) pIC50 for entry Oc1c2c(c(O)n1-c1ccc(Cl)c(Cl)c1)C1(Cc3ccccc3C1)NC2c1ccccc1 (stereo not drawn) .
< 4.00

====

Measured IC50, listed per entry.
biological target: Phenylalanine--tRNA ligase (Staphylococcus aureus); assay: Inhibitory activity against phenylalanyl-tRNA synthetase from Staphylococcus aureus

// below: answered compounds
O=C1c2ccccc2C(=O)C12OC(c1ccccc1)c1c2c(O)n(-c2ccc([N+](=O)[O-])cc2)c1O (stereo not drawn); > 100 µM
Oc1c2c(c(O)n1-c1ccc(Cl)c(Cl)c1)C1(Cc3ccccc3C1)NC2c1ccccc1 (stereo not drawn); > 100 µM

Next:
Item O=C1c2ccccc2C(=O)C12OC(c1ccccc1)c1c2c(O)n(-c2ccc(Cl)c(C(F)(F)F)c2)c1O (stereo not drawn) : provide IC50
45 µM

====

biological target: Phenylalanine--tRNA ligase (Enterococcus faecalis); experiment: Inhibitory activity against phenylalanyl-tRNA synthetase from Enterococcus faecalis
Measured IC50, listed per entry.

Item O=C1c2ccccc2C(=O)C12OC(c1ccccc1)c1c2c(O)n(-c2ccc(Cl)c(C(F)(F)F)c2)c1O (stereo not given) : provide IC50
32 µM

Item Oc1c2c(c(O)n1-c1ccc(Cl)c(Cl)c1)C1(Cc3ccccc3C1)NC2c1ccccc1 (stereo not given) : provide IC50
> 100 µM

====

biological target: Phenylalanine--tRNA ligase (Enterococcus faecalis); assay: Inhibitory activity against phenylalanyl-tRNA synthetase from Enterococcus faecalis
Measurement name: IC50

COC(=O)C1NC(c2ccccc2)c2c1c(O)n(-c1ccc(Cl)c(Cl)c1)c2O (stereo not drawn); > 100 µM
O=C1c2ccccc2C(=O)C12OC(c1ccccc1)c1c2c(O)n(-c2ccc([N+](=O)[O-])cc2)c1O (stereo not drawn); > 100 µM

Next:
Quote Phenylalanine--tRNA ligase (Enterococcus faecalis) IC50 for entry Cc1ccc(C2OC3(C(=O)c4ccccc4C3=O)c3c2c(O)n(-c2ccc4c(c2)OCO4)c3O)cc1 (stereo not drawn) .
> 100 µM
